tested on: HMG-CoA reductase; experiment: Effects of sterols on HMG-CoA reductase activity in CHO-K1 cells; assay type: cell-based; conditions: 4 hours, sterol concentration 1.0 μM
// reported HMG-CoA reductase activity (% of control activity) per item
reported_property: HMG-CoA reductase activity (% of control activity)

>>> print(df.to_string())
                                   molecule         experimental_result
0  CC(C)C(O)CC[C@@H](C)[C@H]1CC(=O)C2=C3CC[C@H]4C[C@@H](O)CC[C@]4(C)[C@H]3CC[C@@]21C (stereo partly drawn)  34.2 % of control activity
1  C[C@H](CCCC(C)(C)O)[C@H]1CC(=O)C2=C3CC[C@H]4C[C@@H](O)CC[C@]4(C)[C@H]3CC[C@@]21C  34.8 % of control activity
2  CC(C)=CCC[C@@H](C)[C@H]1CC(=O)C2=C3CC[C@H]4C[C@@H](O)CC[C@]4(C)[C@H]3CC[C@@]21C  40.0 % of control activity
3  C[C@H](CCCN(C)C)[C@H]1CC(=O)C2=C3CC[C@H]4C[C@@H](O)CC[C@]4(C)[C@H]3CC[C@@]21C  53.5 % of control activity
4  C[C@H](CCCC(F)(C(F)(F)F)C(F)(F)F)[C@H]1CC(=O)C2=C3CC[C@H]4C[C@@H](O)CC[C@]4(C)[C@H]3CC[C@@]21C  29.0 % of control activity
5  C[C@H](CCC(=O)O)[C@H]1CC(=O)C2=C3CC[C@H]4C[C@@H](O)CC[C@]4(C)[C@H]3CC[C@@]21C  65.0 % of control activity

Origin of the recorded values: patent US5371077A
